system: OVCAR-3 ovarian; test: NCI tumour cell line growth inhibition, 48 h
Recorded TGI by entry

These solved cases illustrate the format of a correct answer.
O=C(/C=C/c1ccco1)N1CCN(Cc2ccccc2)CC1	> 100 µM
CN(CCCN1CCCC1)CCCN(C)C(=O)Cc1ccc(Cl)c(Cl)c1	> 88.4 µM
CC(C)(C)c1cc(C#N)c2c(c1)C(=O)OC2(c1ccccc1)c1ccccc1C#N (centres undefined)	> 100 µM

Query: Param item = C[C@@]12[Se]c3ccccc3[C@]1(C)[Se]c1ccccc12 ; retrieve measured TGI.
Result: > 100 µM

* * *

tested on: KM12 colon; assay: NCI tumour cell line growth inhibition, 48 h
# TGI annotations

COc1ccc(C#CC2=C(Br)C(=O)OC2)cc1	11 µM
CCC1=NC(N/N=C/c2ccco2)=N/C1=C\c1ccco1	> 100 µM
CN(C)c1cccc2c(S(=O)(=O)NCCCNCCN)cccc12	> 100 µM
N#CCc1ccccc1/C(C#N)=C1/OC(=N)C(c2ccccc2CC#N)C1=O (centres undefined)	> 100 µM
Clc1cccc(/C=c2\nc(-c3ccccc3)n3c2nc2ccccc23)c1	> 100 µM

Query: What does the record list as TGI for CC/C(=N/O)C(C)C(=O)CCC(=O)Nc1ccc(Cl)cc1 (centres undefined) ?
Result: > 100 µM

Query: Do the same for Nc1ccc(Cc2ccc(N)c(C(=O)O)c2)cc1C(=O)O please
Result: > 100 µM

Query: Ok, now CC(C)(C)COS(=O)OCC(C)(C)C
Result: > 100 µM

Query: Thanks! And COc1ccc2cn3c4ccc(O)cc4[nH]c(=O)c3c2c1 ?
Result: 14.9 µM
